- target-or-system: Cytochrome P450 3A4 (Homo sapiens) (UniProt P08684)
- Sequence (P08684 whole entry, looked up): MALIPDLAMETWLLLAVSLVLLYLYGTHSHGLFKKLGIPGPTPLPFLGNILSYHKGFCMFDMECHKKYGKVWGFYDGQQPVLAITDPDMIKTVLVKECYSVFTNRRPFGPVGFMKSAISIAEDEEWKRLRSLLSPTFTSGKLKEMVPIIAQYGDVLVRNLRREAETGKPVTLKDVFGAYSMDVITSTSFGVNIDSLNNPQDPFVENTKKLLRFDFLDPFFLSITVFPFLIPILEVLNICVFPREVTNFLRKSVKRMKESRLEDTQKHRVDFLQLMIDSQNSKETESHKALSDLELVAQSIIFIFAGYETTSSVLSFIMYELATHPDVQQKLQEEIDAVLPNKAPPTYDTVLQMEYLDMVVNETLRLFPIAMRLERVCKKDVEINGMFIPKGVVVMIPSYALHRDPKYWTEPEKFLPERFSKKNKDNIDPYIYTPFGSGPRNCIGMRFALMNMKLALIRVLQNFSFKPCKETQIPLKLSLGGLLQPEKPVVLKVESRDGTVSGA
- assay-comment: Cytochrome panel assay with activity outcomes
- measurement-context: recombinant CYP, pro-luciferin dealkylation, luminescence, p450-cyp3a4; series mostly up to 57.1 µM
The campaign covered roughly 16,000 compounds. About 5,100 (32%) were called active. Roughly 25% stayed inconclusive and do not appear here. Calls follow the shape of the dose curve; as a rule, active = well fitted curve in the direction sought with a large enough effect; inconclusive = small, poorly fitted or top-dose-only effect, or effect the other way; inactive = no such curve, though single readings can be large or run the other way. The list shows a part of the results.
Labels: yes for active, no for inactive

compound | class-name
Cc1nc(SCC(=O)c2cc3ccccc3oc2=O)c(C#N)c(C)c1C(=O)Nc1ccccc1 | no
CC(C)CCNC1=NCCCCC1 | no
Cc1cc(C)n2nc(SCc3cc(=O)oc4ccc5ccccc5c34)nc2n1 | yes
CS(=O)(=O)Nc1cccc(-c2nc(N3CCNCC3)c3ccccc3n2)c1 | no
CNC(=S)Nc1ccc(Nc2ccccc2)cc1 | no
Cc1nn2c(C)nc3sc4c(c3c2nc1=O)CC(C)(C)OC4 | no
O=C(Cn1cc(C(=O)c2ccco2)c2ccccc21)NCc1ccco1 | yes
Cc1[nH]c2ccccc2c1/C=C(\C#N)C(=O)NC(C)c1ccccc1 (centres undefined) | yes
c1cncc(-c2cncnc2NCc2cccs2)c1 | yes
C[C@H](NC(=O)/C(C#N)=C/c1ccc(O)c(O)c1)c1ccccc1 | yes
Cc1ccccc1C(=O)c1cccn1CC(=O)NCc1ccco1 | yes
COc1ccccc1OCCn1cc(C(=O)c2ccco2)c2ccccc21 | yes
C[C@@H]1[C@H]2CC[C@@H]3[C@@H]4CC=C5C[C@@H](N(C)C)CC[C@]5(C)[C@@H]4CC[C@@]32CN1C | no
c1cncc(-c2nc(NCCN3CCOCC3)c3ccccc3n2)c1 | yes
O=C(c1cn(-c2ccccc2)nc1-c1cccs1)N1CCOCC1 | yes
C[C@@H](NC(=O)/C(C#N)=C/c1ccc(O)c(O)c1)c1ccccc1 | yes
O=C1C=C(NCCN2CCOCC2)CC(c2ccccc2)C1 (centres undefined) | no
Cc1c(C#N)c(=O)oc2ccc3ccccc3c12 | yes
CS(=O)(=O)Nc1cccc(-c2nc(N3CCOCC3)c3ccccc3n2)c1 | yes
c1csc(CNc2ncncc2-c2ccoc2)c1 | yes
Cc1cc(NC(=S)Nc2ccccc2)ccc1Br | yes
O=C(Nc1cccc2ccccc12)c1cn(-c2ccccc2)nc1-c1cccs1 | yes
CCCSc1nc(NCc2ccco2)c2c3c(sc2n1)COC(C)(C)C3 | yes
Cc1nnc(NC(=O)CCC(=O)NCc2cccs2)s1 | no
